Target: T1, huCD98hc ECD Avi-His (human, UniProt P08195 105-529)
T1 construct: biotinylated on the Avi tag where captured on streptavidin; also called Human CD98-AVI-His; Human CD98hc-AVI-His
T1 sequence: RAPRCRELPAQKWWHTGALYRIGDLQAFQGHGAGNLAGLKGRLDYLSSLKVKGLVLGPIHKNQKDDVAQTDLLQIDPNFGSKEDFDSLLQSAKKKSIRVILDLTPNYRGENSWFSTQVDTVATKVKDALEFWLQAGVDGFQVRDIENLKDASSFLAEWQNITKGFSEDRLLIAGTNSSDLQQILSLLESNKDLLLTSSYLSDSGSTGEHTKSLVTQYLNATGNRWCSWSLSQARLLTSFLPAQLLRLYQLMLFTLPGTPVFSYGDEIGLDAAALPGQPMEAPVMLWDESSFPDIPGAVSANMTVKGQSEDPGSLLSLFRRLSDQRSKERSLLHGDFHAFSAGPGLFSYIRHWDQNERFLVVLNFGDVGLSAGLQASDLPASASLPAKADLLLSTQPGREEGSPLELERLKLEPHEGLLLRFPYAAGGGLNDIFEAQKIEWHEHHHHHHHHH
Experiment: ELISA, hybridoma supernatant
Experimental: Briefly, 96-well polystyrene plates were coated with 5 μg/ml of streptavidin (Thermo Fisher, Cat #PI21125) in coating buffer (0.05M carbonate buffer, pH 9.6, Sigma, Cat #C3041) overnight at 4° C. Coated plates were then blocked with ELISA diluent (PBS+0.5% BSA+0.05% Tween20) for one hour. […] The plates were read for absorbance at 450 nm on a SpectraMax M5 (Molecular Devices, Sunnyvale, CA) using SoftMax Pro software.
REPORTED_PROPERTY: OD450
// return just the number, without any unit appended

These solved cases illustrate the format of a correct answer.
BINDER	NUMERIC_READOUT
CD98HC.04.062 (antibody, V domains shown, hybridoma IgG) VH: EVQLVESGGDLVKPGGSLKLSCTASRFAFSTYDMSWVRQTPEKRLEWVAYISSGGGSTYFPDTVKGRFTISRDNAKNTLYLQMSSLKSEDTAMYYCARQDGHYPWFPYWGQGTLVTVSA VL: DIVMSQSPSSLAVSVGEKVTMSCKSSQSLLYSGNQKTYLAWYQQKPGQSPKPLIYWASTRESGIPDRFTGSGSGTDFTLTISSVKAEDLAVYYCQQYYSYPPTFGAGTKLELK	1.61
CD98HC.04.046 (antibody, V domains shown, hybridoma IgG) VH: QIQLVQSGPVLKKPGETVKISCKASGYTFTNFGMNWVKQAPGKGLKWMGWIDTYTREPTYVDDFKGRFAFSLETSVTTAYLQINDLKNEDSATYFCARGESHWYFDVWGAGTTVTVSS VL: QIVLTQSPAIMSASLGERVTMTCIVSSSVSSSYLYWYQQKPGSSPKLWIYSTSILASGVPGRFSGSGSGTSYSLTISSMEAEDAATYYCHQYHRSPPTFGGGTKLEIK	1.38

Now for another entry.
Query (binder): CD98HC.04.006 (antibody, V domains shown, hybridoma IgG) VH: EVNLVESGGDLVQPGGSLRLSCATSGFTFTDYFMSWVRQPPGKALEWLGFIRNKAYGYTTEYSASVKGRFTISRDNSQSIFYLQMNTLRLEDSATYYCARGPFISTAPFAYWGQGTLVTVSA VL: DIVMSQSPSSLAVSVGETVTMSCKSSQSLLYSSNQKNYLAWYQQKPGQSPKLLIYWGSTRESGVPDRFTGSGSGTDFTLTISSVKAEDLAVYYCQHYYGYPWTFGGGTKLEIK ; field requested: OD450
1.24
